- Assay System: T1, recombinant human C1r2s2 tetramer (human, UniProt P09871 16-688; P00736 18-705)
- T1 construct: C1s and C1r co-expressed in HEK293/FreeStyle 293-F and purified from conditioned medium
- T1 chain 1: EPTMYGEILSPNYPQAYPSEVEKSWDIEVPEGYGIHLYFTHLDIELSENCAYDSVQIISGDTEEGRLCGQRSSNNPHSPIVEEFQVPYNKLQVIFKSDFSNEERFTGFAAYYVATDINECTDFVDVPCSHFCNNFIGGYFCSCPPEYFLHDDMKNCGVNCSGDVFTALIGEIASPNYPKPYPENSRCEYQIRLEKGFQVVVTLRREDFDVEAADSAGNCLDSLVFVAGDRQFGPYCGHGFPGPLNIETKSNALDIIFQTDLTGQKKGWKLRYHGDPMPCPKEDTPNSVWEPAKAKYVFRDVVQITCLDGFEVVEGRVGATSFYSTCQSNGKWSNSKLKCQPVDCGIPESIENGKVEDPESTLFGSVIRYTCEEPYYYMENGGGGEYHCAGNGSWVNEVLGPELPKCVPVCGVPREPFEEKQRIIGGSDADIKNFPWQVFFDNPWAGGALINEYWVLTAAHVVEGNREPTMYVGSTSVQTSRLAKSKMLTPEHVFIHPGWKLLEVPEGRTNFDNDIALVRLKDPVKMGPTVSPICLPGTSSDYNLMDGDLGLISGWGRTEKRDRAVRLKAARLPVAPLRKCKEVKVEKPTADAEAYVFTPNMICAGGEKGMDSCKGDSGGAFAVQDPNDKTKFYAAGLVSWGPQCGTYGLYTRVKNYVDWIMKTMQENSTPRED
- T1 chain 2: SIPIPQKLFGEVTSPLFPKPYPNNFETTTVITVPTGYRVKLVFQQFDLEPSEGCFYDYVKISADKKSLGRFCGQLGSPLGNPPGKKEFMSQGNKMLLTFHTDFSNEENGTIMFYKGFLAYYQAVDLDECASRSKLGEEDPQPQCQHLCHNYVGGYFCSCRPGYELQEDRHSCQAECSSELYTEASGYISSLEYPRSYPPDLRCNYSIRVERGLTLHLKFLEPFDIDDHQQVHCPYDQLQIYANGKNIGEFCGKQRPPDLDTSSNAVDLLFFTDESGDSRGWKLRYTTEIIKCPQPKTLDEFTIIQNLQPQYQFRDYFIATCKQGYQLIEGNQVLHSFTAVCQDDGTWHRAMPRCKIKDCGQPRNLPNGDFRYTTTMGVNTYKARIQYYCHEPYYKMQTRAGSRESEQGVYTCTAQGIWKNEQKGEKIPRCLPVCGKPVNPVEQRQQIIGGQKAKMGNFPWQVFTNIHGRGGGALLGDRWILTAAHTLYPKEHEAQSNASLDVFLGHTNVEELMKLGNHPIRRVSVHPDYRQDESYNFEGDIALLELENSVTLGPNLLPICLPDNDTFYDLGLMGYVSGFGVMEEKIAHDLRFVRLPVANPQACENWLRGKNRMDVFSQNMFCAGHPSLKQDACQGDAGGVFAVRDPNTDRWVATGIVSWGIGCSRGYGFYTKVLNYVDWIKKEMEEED
- Run Description: SPR (BIACORE T200), 37 C, Ab captured via anti-human Ig kappa, human C1r2s2 as analyte, pH 7.4
pKd: −log10 of the molar value.
Decision: pKd compared against 8; not below it gives Satisfied, below it gives Not satisfied.

Example results:
COS0637h-TT91R (antibody, human IgG1, V domains shown, Humanized COS0637cc; modified human IgG1 CH TT91R, human CL SK1) VH: QVQLVESGGGVVQPGRSLRLSCAASGFTFSAYAMNWIRQPPGKGLEWIGLIYGSGSTFYASWAKGRVTISVDTSKNQFSLKLSSVTAADTAVYYCARGRSVNYNSDFKLWGQGTLVTVSS VL: DIQMTQSPSSLSASVGDRVTITCQASQSLHDKKNLAWYQQKPGQPPKLLIYGASTLESGVPSRFSGSGSGTDFTLTISSLQPEDFATYYCQGEFSCSSADCNTFGQGTKVEIKR | Not satisfied
COS0637pHv7-TT91R (antibody, V domains shown) VH: QVQLVESGGGVVQPGRSLRLSCAASGFTFSAYAMNWIRQPPGKGLEWIGLIYGSGHEFYASWAEERVTISVDTSKNQFSLKLSSVTAADTAVYYCARGRSKNYNSDFHLWGQGTLVTVSS VL: DIQMTQSPSSLSASVGDRVTITCQASQILHDKKNLAWYQQKPGQPPKLLIYQASQLESGVPSRFSGSGSGTDFTLTISSLQPEDFATYYCHGEFSYSSADLNTFGQGTKVEIKR | Satisfied

Then there is this binder:
Q. Record COS0637pHv9-TT91R (antibody, V domains shown) VH: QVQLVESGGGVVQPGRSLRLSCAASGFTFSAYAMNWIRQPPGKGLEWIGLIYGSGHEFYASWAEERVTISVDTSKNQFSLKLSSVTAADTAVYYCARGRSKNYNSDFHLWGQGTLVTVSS VL: DIQMTQSPSSLSASVGDRVTITCQANQILHDKKNLAWYQQKPGQPPKLLIYQASQRESGVPSRFSGSGSGTDFTLTISSLQPEDFATYYCHGEFPYESADLNTFGQGTKVEIKR ; criterion: pKd no lower than 8. Met?
A. Satisfied
